# Test system: pigweed (Amaranthus retroflexus)
# protocol.details: Test A postemergence
# Format: in vivo
# test.settings: 500 g ai/ha, postemergence; 0 to 100 scale, 0 no effect, 100 complete control
Exercise: for every item that follows, state its recorded Plant response rating, Pigweed.
Numbers only.

{"compound": "O=C1NCC(c2cccc(OC(F)F)c2)C1C(=O)Nc1ccccc1OC(F)F (stereo not drawn)", "measured.on": "pigweed (Amaranthus retroflexus)", "property.name": "Plant response rating, Pigweed", "assay.value": 0}
{"compound": "O=C1NCC(c2ccc(-c3ccccc3)cc2)C1C(=O)Nc1ccccc1F (racemic)", "measured.on": "pigweed (Amaranthus retroflexus)", "property.name": "Plant response rating, Pigweed", "assay.value": 0}
{"compound": "Cc1ccc(F)c(NC(=O)C2C(=O)NCC2c2ccc(F)c(F)c2)c1 (stereo not drawn)", "measured.on": "pigweed (Amaranthus retroflexus)", "property.name": "Plant response rating, Pigweed", "assay.value": 0}
{"compound": "COc1cccc(NC(=O)C2C(=O)NCC2c2ccc(F)c(F)c2)c1F (stereo not drawn)", "measured.on": "pigweed (Amaranthus retroflexus)", "property.name": "Plant response rating, Pigweed", "assay.value": 0}
{"compound": "Cc1cc(C2CN(C)C(=O)C2C(=O)Nc2cccc(F)c2F)ccc1F (stereo not drawn)", "measured.on": "pigweed (Amaranthus retroflexus)", "property.name": "Plant response rating, Pigweed", "assay.value": 50}
{"compound": "O=C1NCC(c2ccc(F)cc2F)C1C(=O)Nc1cccc(F)c1F (stereo not drawn)", "measured.on": "pigweed (Amaranthus retroflexus)", "property.name": "Plant response rating, Pigweed", "assay.value": 60}
{"compound": "CC(=O)Oc1cccc(C2CNC(=O)C2C(=O)Nc2cccc(F)c2F)c1 (stereo not drawn)", "measured.on": "pigweed (Amaranthus retroflexus)", "property.name": "Plant response rating, Pigweed", "assay.value": 0}
{"compound": "CN1CC(c2ccc(F)cc2)C(C(=O)Nc2ccccc2F)C1=O (stereo not drawn)", "measured.on": "pigweed (Amaranthus retroflexus)", "property.name": "Plant response rating, Pigweed", "assay.value": 20}
{"compound": "O=C1NCC(c2cccc(F)c2)C1C(=O)Nc1ccccc1C(F)(F)F (racemic)", "measured.on": "pigweed (Amaranthus retroflexus)", "property.name": "Plant response rating, Pigweed", "assay.value": 0}
{"compound": "O=C1NCC(c2ccoc2)C1C(=O)Nc1ccccc1C(F)(F)F (racemic)", "measured.on": "pigweed (Amaranthus retroflexus)", "property.name": "Plant response rating, Pigweed", "assay.value": 0}

I need Plant response rating, Pigweed for every entry listed below, if you could help.
1. O=C1NCC(c2ccccc2-c2ccccc2)C1C(=O)Nc1ccc(F)c(F)c1F (racemic)
2. CN1CC(c2ccc(Cl)cc2)C(C(=O)Nc2ccccc2S(C)(=O)=O)C1=O (stereo not drawn)

0
50

---

# System: barnyardgrass (Echinochloa crus-galli)
# protocol.details: Test G Pre-Emergence Protocol
# Format: in vivo
# test.settings: Echinochloa crus-galli, pre-emergence, 312 h, 250 g ai/ha, evaluated after 13 days, read-out: Barnyardgrass damage rating (100=total damage to plant; 0=no damage to plant)
property.name: pest or weed control at 250 g/ha (%)
Answers are plain numbers, in %.

Sample records with pest or weed control at 250 g/ha:
{"molecule": "CN1C[C@H](c2ccc3occc3c2)[C@@H](C(=O)Nc2cccc(F)c2F)C1=O (racemic)", "measured.on": "barnyardgrass (Echinochloa crus-galli)", "property.name": "pest or weed control at 250 g/ha", "assay.value": 90}
{"molecule": "CN1C[C@H](c2ccc(C(F)(F)F)cc2)[C@@H](C(=O)Nc2cnccc2[N+](=O)[O-])C1=O (racemic)", "measured.on": "barnyardgrass (Echinochloa crus-galli)", "property.name": "pest or weed control at 250 g/ha", "assay.value": 0}
{"molecule": "CN1C[C@@H](c2ccc(Cl)nc2)[C@H](C(=O)Nc2cccc(F)c2F)C1=O (racemic)", "measured.on": "barnyardgrass (Echinochloa crus-galli)", "property.name": "pest or weed control at 250 g/ha", "assay.value": 80}

Consider now this further molecule.
Given the molecule CC(C)S(=O)(=O)c1ccccc1NC(=O)[C@H]1C(=O)N(C)C[C@@H]1c1ccc(C(F)(F)F)cc1 (racemic) , what is its reported pest or weed control at 250 g/ha?
20
